Recorded values, source PubChem BioAssay AID1159580.

Hi there, I'd appreciate the recorded normalized growth for every entry that follows.
experiment: chemical genetic growth profiling, strain panel (AID 1159580);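 note: tested at 20 µM; growth read once vehicle control cultures reached saturation at 30 °C; 1 = growth at the plate median or of vehicle wells; lower values mean less growth of the strain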; details: S. cerevisiae deletion strains, growth OD, locus YGL086W, strain mad1, stronger effect = lower value
Screen size: about 5,500 compounds; about 2,000 (36%) were called active. Another 18% or so got no clear call; they are omitted. This is one part of the list.
Write the value as a bare number.

Report normalized growth for CC12CCC3c4ccc(OC(=O)c5ccccc5)cc4CCC3C1CCC2O (centres undefined) please.
1

Would you mind telling me what normalized growth value was observed for C[C@@H]1CC[C@@]2(OC1)O[C@H]1CC3C4CC[C@H]5C[C@@H](O)CC[C@]5(C)C4CC[C@]3(C)[C@H]1[C@@H]2C (some centres undefined) ?
0.993

Name the reported normalized growth value associated with the compound COC(=O)C1OC(=O)C2OC23C1(C)CCC1C2(C)C(OC(C)=O)CC(OC(C)=O)C(C)(C)C2CC(=O)C13C (centres undefined)
0.982

Return reported normalized growth; argument: C[C@]12CCC3c4ccc(OS(=O)(=O)O)cc4CCC3C1CC[C@H]2O (some centres undefined)
0.988

Which normalized growth value belongs to COc1ccc2c(c1)CCC1C2CC[C@@]2(C)C1CC[C@@H]2O (some centres undefined) ?
0.75

Find the recorded normalized growth belonging to Oc1cc2c(cc1O)C1c3ccc(O)c(O)c3OCC1(O)C2 (centres undefined) and report it.
0.966

Query (compound): COc1ccc(-c2oc3cc(O[C@H]4O[C@H](CO)[C@@H](O)[C@H](O)[C@H]4O)c(OC)c(O)c3c(=O)c2OC)cc1O ; field requested: normalized growth
0.97

What normalized growth value was documented for this compound, CC12CCC3c4ccc(OCc5ccccc5)cc4CCC3C1C[C@@H](O)[C@@H]2O (some centres undefined) ?
0.0655

Entry CCN1C[C@]2(C)CC[C@H](OC)[C@]34C2[C@H](O)[C@]2(OCO[C@@]25C[C@H](OC)[C@H]2C[C@]3(O)C5[C@H]2O)C14 has what normalized growth?
1

Need normalized growth of NC(=O)NCC(N)C(=O)O (centres undefined) , thanks.
0.994

Name the reported normalized growth value associated with the compound Oc1ccc2c(c1)OCC1(O)Cc3cc(O)c(O)cc3C21 (centres undefined)
0.996

Tell me the measured normalized growth of CC1CC[C@@]2(OC1)O[C@H]1CC3C4CC[C@@H]5C[C@@H](O)CC[C@]5(C)C4CC[C@]3(C)[C@H]1[C@@H]2C (some centres undefined) , please.
1

Data request, read-out normalized growth, for O=c1cc(-c2ccc(O)cc2)oc2cc(O[C@@H]3O[C@H](CO)[C@@H](O)[C@H](O)[C@H]3O)cc(O)c12
0.978

Fill blank: measured normalized growth of the compound C[C@@H]([C@H](O)c1ccccc1)N(C)C is ____.
0.997
